Listed here are molecules together with their documented viability at 72 h, 10 µM.
Test: Cytotoxicity against human MCF10A cells assessed as cell viability at 10 uM after 72 hrs by sulforhodamine B assay relative to control
Assay type: cell-based, MCF-10A
Conditions: read-out: Activity
API: value field is a number in %; no unit string.

Answered examples (8):
molecule: O=C(/C=C/c1cc(F)cc(F)c1O)c1ccccc1
dataValue: 37.4
//
molecule: Cc1ccc(C(=O)CC2C(C#N)=C(N)Oc3ccc(Br)cc32)cc1 (stereo not given)
dataValue: 133
//
molecule: N#CC1=C(N)Oc2ccc(Br)cc2C1CC(=O)c1ccc(Br)cc1 (stereo not given)
dataValue: 32.6
//
molecule: COc1cc(Br)cc(/C=C/C(=O)c2ccc(Cl)cc2)c1O
dataValue: 35.2
//
molecule: COc1cc(Br)cc2c1OC(N)=C(C#N)C2CC(=O)c1ccccc1 (stereo not given)
dataValue: 45.9
//
molecule: COc1cccc(C(=O)/C=C/c2cc(Br)cc(OC)c2O)c1
dataValue: 33.5
//
molecule: COC(=O)C1=C(N)Oc2c(OC)cc(Br)cc2C1CC(=O)c1ccc(Cl)cc1 (stereo not given)
dataValue: 40.9
//
molecule: N#CC1=C(N)Oc2c(F)cc(F)cc2C1CC(=O)c1ccccc1 (stereo not given)
dataValue: 53.8

Prompt: Check the records and state viability at 72 h, 10 µM for O=C(/C=C/c1cc(Br)ccc1O)c1ccc(Br)cc1
Response: 32.8

Prompt: Check the records and state viability at 72 h, 10 µM for Cc1ccc(C(=O)/C=C/c2cc(Br)ccc2O)cc1
Response: 32.4

Prompt: Check the records and state viability at 72 h, 10 µM for COc1cc(Br)cc2c1OC(N)=C(C#N)C2CC(=O)c1ccc(Cl)cc1 (stereo not given)
Response: 36.8

Prompt: Check the records and state viability at 72 h, 10 µM for COc1cccc(C(=O)CC2C(C#N)=C(N)Oc3c(OC)cc(Br)cc32)c1 (stereo not given)
Response: 32.3

Prompt: Check the records and state viability at 72 h, 10 µM for Cc1ccc(C(=O)CC2C(C#N)=C(N)Oc3ccc(Cl)cc32)cc1 (stereo not given)
Response: 41.8
